- targetEntity: T1, CD3 epsilon homodimer protein (UniProt P07766 23-126)
- T1 construct: also called CD3 (CD3 epsilon)
- T1 sequence (P07766 23-126): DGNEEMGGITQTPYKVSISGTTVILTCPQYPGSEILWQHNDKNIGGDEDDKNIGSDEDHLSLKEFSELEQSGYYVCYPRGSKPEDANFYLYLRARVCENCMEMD
- test: SPR, antibody over immobilised CD3e homodimer;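 note: SPR at 25 °C with CD3 epsilon homodimer amine-coupled to a CM4 sensor chip and antibody flowed over as analyte in HBS-EP+ running buffer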
API: label(entry) gives Yes if the entry's KD ratio to GLS3000 is strictly smaller than 2; on equality or larger values it gives No.

binder	cat
CE115HA000/GLS3000 H34E (antibody, IgG1, name in Kabat numbering, V domains shown, one-arm IgG1) VH: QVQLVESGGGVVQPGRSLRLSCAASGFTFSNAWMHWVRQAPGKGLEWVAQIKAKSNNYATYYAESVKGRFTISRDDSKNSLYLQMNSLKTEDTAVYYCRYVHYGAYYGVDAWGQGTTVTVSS VL: DIVMTQSPLSLPVTPGEPASISCRSSQSLVHSNRNTYLEWYQQKPGQAPRLLIYKVSNRFSGVPDRFSGSGSGTDFTLKISRVEAEDVGVYYCGQGTQVPYTFGQGTKLEIK	No

Quick check: does CE115HA000/GLS3000 S56N (antibody, IgG1, name in Kabat numbering, V domains shown, one-arm IgG1) VH: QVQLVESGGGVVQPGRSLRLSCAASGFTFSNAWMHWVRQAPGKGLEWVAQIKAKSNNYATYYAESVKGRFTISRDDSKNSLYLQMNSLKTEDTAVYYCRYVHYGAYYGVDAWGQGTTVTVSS VL: DIVMTQSPLSLPVTPGEPASISCRSSQSLVHSNRNTYLHWYQQKPGQAPRLLIYKVSNRFNGVPDRFSGSGSGTDFTLKISRVEAEDVGVYYCGQGTQVPYTFGQGTKLEIK have KD ratio to GLS3000 under 2?
Yes

Is it true that KD ratio to GLS3000 reported for CE115HA000/GLS3000 N30S (antibody, IgG1, name in Kabat numbering, V domains shown, one-arm IgG1) VH: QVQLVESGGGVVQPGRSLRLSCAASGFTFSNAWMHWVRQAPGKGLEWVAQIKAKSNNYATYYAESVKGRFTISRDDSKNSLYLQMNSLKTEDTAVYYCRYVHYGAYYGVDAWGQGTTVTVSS VL: DIVMTQSPLSLPVTPGEPASISCRSSQSLVHSNRSTYLHWYQQKPGQAPRLLIYKVSNRFSGVPDRFSGSGSGTDFTLKISRVEAEDVGVYYCGQGTQVPYTFGQGTKLEIK is less than 2?
No

Here's an entry: CE115HA000/GLS3000 K74T (antibody, IgG1, name in Kabat numbering, V domains shown, one-arm IgG1) VH: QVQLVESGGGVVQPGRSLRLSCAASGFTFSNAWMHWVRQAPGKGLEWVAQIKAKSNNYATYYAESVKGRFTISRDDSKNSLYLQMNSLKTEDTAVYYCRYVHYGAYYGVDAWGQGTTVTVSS VL: DIVMTQSPLSLPVTPGEPASISCRSSQSLVHSNRNTYLHWYQQKPGQAPRLLIYKVSNRFSGVPDRFSGSGSGTDFTLTISRVEAEDVGVYYCGQGTQVPYTFGQGTKLEIK . Is its KD ratio to GLS3000 below 2?
Yes
